Target: Gal(b1-3)GlcNAc(b1-3)Gal(b1-4)GlcNAc
Assay: glycan array binding signal (z-score within array); higher = stronger binding
Conditions: glycan notation: IUPAC condensed, linker removed
Shown is part of a subset that was picked to be rich in the strongest signals.

binder: Regenerating Gene I (Homo sapiens), P05451 (protein) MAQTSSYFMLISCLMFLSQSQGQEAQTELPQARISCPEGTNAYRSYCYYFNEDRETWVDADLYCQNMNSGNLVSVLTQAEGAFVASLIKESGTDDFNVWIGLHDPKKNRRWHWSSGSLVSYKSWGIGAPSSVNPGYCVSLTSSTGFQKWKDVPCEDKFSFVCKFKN
glycan array binding signal (z-score): -0.537
--
binder: Clec12b (Mus musculus), Q149M0 (protein) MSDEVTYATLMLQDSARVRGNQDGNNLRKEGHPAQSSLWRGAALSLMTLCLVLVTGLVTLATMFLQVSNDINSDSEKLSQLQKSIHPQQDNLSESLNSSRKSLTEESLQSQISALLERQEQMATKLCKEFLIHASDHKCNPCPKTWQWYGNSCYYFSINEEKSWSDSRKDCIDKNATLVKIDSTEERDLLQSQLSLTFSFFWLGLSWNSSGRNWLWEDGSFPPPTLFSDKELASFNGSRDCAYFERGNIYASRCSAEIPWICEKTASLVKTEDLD
glycan array binding signal (z-score): -0.41
--
binder: RVL (Remusatia vivipara), B5LYJ9 (protein) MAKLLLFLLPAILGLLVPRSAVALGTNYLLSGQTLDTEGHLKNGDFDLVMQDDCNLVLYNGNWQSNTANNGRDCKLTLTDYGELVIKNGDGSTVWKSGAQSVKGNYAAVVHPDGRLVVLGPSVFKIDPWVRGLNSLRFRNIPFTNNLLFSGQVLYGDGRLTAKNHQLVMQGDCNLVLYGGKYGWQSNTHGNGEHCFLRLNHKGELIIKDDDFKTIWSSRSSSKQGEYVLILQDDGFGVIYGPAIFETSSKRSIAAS
glycan array binding signal (z-score): -0.252
--
binder: LSL-150 (Laetiporus sulphureus), Q7Z8V1 (protein) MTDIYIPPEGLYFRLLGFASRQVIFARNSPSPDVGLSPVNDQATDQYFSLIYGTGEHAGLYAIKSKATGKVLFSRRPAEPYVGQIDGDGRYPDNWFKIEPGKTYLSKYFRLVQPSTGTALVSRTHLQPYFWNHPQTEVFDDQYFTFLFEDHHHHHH
glycan array binding signal (z-score): -0.124
--
binder: Mindin (Homo sapiens), Q9BUD6 (protein) MENPSPAAALGKALCALLLATLGAAGQPLGGESICSARALAKYSITFTGKWSQTAFPKQYPLFRPPAQWSSLLGAAHSSDYSMWRKNQYVSNGLRDFAERGEAWALMKEIEAAGEALQSVHEVFSAPAVPSGTGQTSAELEVQRRHSLVSFVVRIVPSPDWFVGVDSLDLCDGDRWREQAALDLYPYDAGTDSGFTFSSPNFATIPQDTVTEITSSSPSHPANSFYYPRLKALPPIARVTLVRLRQSPRAFIPPAPVLPSRDNEIVDSASVPETPLDCEVSLWSSWGLCGGHCGRLGTKSRTRYVRVQPANNGSPCPELEEEAECVPDNCV
glycan array binding signal (z-score): 2.01
--
binder: AT5G24760(45) (Arabidopsis thaliana), Q8LEB2 (protein) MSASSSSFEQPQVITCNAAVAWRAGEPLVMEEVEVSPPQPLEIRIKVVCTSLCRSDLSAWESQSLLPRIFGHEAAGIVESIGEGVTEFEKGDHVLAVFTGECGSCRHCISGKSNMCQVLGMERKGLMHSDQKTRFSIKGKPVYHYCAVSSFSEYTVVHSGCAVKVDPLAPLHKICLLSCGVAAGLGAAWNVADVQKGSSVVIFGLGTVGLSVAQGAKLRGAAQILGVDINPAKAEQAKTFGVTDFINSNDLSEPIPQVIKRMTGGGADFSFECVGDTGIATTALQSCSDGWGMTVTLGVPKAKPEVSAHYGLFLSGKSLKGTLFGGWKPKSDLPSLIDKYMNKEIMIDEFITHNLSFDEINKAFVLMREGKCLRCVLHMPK
glycan array binding signal (z-score): -0.138
--
binder: LlpB (Pseudomonas fluorescens) (protein) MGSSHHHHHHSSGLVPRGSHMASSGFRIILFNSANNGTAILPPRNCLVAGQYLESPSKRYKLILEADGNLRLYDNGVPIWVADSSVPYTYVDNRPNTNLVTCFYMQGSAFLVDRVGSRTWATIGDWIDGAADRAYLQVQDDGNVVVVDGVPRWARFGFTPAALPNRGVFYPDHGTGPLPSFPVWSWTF
glycan array binding signal (z-score): 0.129
--
binder: CML1 (Coprinopsis cinerea) (protein) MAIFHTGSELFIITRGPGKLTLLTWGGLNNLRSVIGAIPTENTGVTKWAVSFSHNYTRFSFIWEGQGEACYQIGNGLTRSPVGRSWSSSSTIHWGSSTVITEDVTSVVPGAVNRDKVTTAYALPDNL
glycan array binding signal (z-score): -0.339
--
binder: B936 (Bifidobacterium sp) (protein) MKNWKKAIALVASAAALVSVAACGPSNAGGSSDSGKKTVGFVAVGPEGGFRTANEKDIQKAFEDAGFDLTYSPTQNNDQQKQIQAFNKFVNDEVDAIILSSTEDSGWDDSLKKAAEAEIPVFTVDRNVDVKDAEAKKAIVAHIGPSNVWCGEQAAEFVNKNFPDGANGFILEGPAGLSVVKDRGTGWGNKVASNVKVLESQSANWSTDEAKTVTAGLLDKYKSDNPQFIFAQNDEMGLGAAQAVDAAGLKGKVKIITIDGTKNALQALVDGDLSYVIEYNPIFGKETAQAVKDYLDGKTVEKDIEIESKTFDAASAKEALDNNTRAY
glycan array binding signal (z-score): 4.33
--
binder: NcCVNHO (Neurospora crassa), Q7S6U4 (protein) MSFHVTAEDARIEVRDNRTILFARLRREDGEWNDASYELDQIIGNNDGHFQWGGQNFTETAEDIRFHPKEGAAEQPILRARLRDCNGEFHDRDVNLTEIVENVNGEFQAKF
glycan array binding signal (z-score): -0.264
